Consider the following compounds and their measured nuclei count readings.
# Procedure Summary: inhibitors of E-selectin induction by TNFa, primary screen, imaging, HUVEC, immunofluorescence, MLSMR starter and 10KST1 sets (AID 487);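 further: 100% = median nuclei count of all wells on the same plate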
# Condition Parameters: HUVEC TNFalpha-induced E-selectin immunofluorescence imaging, at 2 µM; measured here: cell number, toxicity
Note: a bare number is incomplete; add the unit.

Completed entries (count: 3):
[[record]]
compound = "Clc1ccc2nc(CSc3nc4ccccc4o3)cn2c1"
experimental_result = "99.4%"

[[record]]
compound = "Cc1cc(C)n(C(=O)CNC(=O)C2COc3ccccc3O2)n1 (stereo unspecified)"
experimental_result = "124%"

[[record]]
compound = "Nc1c(C(=O)NCC2CCCO2)c2nc3ccccc3nc2n1/N=C/c1ccncc1 (stereo unspecified)"
experimental_result = "110%"


nuclei count for COc1ccc(C2(CN(C(C)=O)C(C)=O)CCCC2)cc1OC ?
139%

Ok, now CCn1cc(C(=O)NCCCN(C)C)c(=O)c2cc(F)c(N3CCN(C)CC3)cc21
130%

Ok, now COc1cc(C)nc(Oc2ccc(=O)n(C)n2)n1
188%

Ok, now c1ccc(CN2CCN(c3ncnc4c3[nH]c3ccccc34)CC2)cc1
137%

Ok, now COCCNc1oc(-c2ccc(C)cc2)nc1C#N
129%

Ok, now CCN(CC)CCCN1C(=O)C(=O)/C(=C(/O)c2ccc(Cl)cc2)C1c1ccccn1 (stereo unspecified)
81.9%

Ok, now CC(C)(C)NCC(O)COc1cccc2c1C[C@H](O)[C@H](O)C2 (stereo partly specified)
118%

Ok, now N#CC1=C2SCC(O)(c3ccccc3)N2C(=O)CC1c1ccccc1 (stereo unspecified)
98.1%
